Every entry's value here was drawn from ChEMBL document CHEMBL4619752.

- ASSAY_NOTES: in vivo
- CONDITIONS: rat, po, 200 mg/kg
MEASURED_QUANTITY: AUC (ng·h/mL)
Reply numerically in ng·h/mL, unit not repeated.

QUERY: Give the reported AUC for this compound. C[C@H](NS(=O)(=O)c1ccc(-c2sc(C(=O)NCC(C)(C)O)nc2C(=O)N2CCC(F)CC2)c(Cl)c1Cl)C(F)(F)F
RESULT: 5020

====

- ASSAY_NOTES: in vitro
- CONDITIONS: human, microsomes
MEASURED_QUANTITY: half-life

QUERY: Give the reported half-life for this molecule. CC(C)(O)CNC(=O)c1nc(C(=O)N2CCCCC2)c(-c2ccc(S(=O)(=O)NC(C)(C)C)c3ccccc23)s1
RESULT: 1.35 h

QUERY: Give the reported half-life for this molecule. C[C@H](NS(=O)(=O)c1ccc(-c2sc(C(=O)NCC(C)(C)O)nc2C(=O)N2CCCC[C@@H]2C)c(Cl)c1Cl)C(F)(F)F
RESULT: > 3 h

QUERY: Give the reported half-life for this molecule. C[C@H](NS(=O)(=O)c1ccc(-c2sc(C(=O)NCC(C)(C)O)nc2C(=O)N2CCC(F)CC2)c(Cl)c1Cl)C(F)(F)F
RESULT: > 3 h

QUERY: Give the reported half-life for this molecule. CC[C@H](NS(=O)(=O)c1ccc(-c2sc(C(=O)NCC(C)(C)O)nc2C(=O)N(CC)CC)c(Cl)c1Cl)C(F)(F)F
RESULT: > 3 h
